system: DNA aptamer or structured DNA GGGACGACGGGGATTCGGTTCGTCATTTGGCAGTGCCTCGTACGTCGTCCC; conditions: 10 mM Tris-HCl, pH 7.4
assay.endpoint: pKd
pKd here: minus log base 10 of the concentration, concentration in moles per litre.

Assign pKd to the following record: CN1CC[C@]23c4c5ccc(O)c4O[C@H]2[C@@H](O)C=C[C@H]3[C@H]1C5 5.82

* * *

tested on: DNA aptamer or structured DNA GGGACGACGGCTTAGCAAAGCTAGTAGGGGTCCACGCTGTCGTCCC; conditions: 10 mM Tris-HCl, pH 7.4
assay.endpoint: Kd (nM)
Field: numeric (nM). Do not append units.

Quickly give me recorded Kd for COc1ccc2c3c1O[C@H]1C(=O)CC[C@@]4(O)[C@@H](C2)N(C)CC[C@]314 900

Numbers sourced from the AptaBench aptamer set (doi:10.1093/nar/gkaf219).
